t1/2 values, listed per item
Type: in vivo, Wistar rats
measurement.setup: rat plasma, intragastric crude VB extract 200 mg/kg, n=4
Give your result in h as a bare value.

Below, each entry is followed by its recorded t1/2 result.
* CC(=O)O[C@H]1[C@H]2O[C@]23[C@@H]2CC[C@]4(O)C[C@@H](O)CC[C@]4(C=O)[C@H]2CC[C@]3(C)[C@H]1c1ccc(=O)oc1 [CS11, 19-oxocinobufotalin] | 2.614
* C[C@]12CC[C@H]3[C@@H](CC[C@]4(O)C[C@@H](O)CC[C@]34C=O)[C@@]1(O)CC[C@@H]2c1ccc(=O)oc1 [CS04, hellebrigenin] | 4.884
* C[C@]12CC[C@H](O)C[C@H]1CC[C@@H]1[C@@H]2[C@H](O)C(=O)[C@]2(C)[C@@H](c3ccc(=O)oc3)CC[C@]12O [CS03, arenobufagin] | 4.537

Now look at this one.
Return reported t1/2; argument: C[C@]12CC[C@H](O)C[C@H]1CC[C@@H]1[C@@H]2C(=O)[C@H](O)[C@]2(C)[C@@H](c3ccc(=O)oc3)CC[C@]12O [CS01, pseudobufarenogin] 3.944

====

Assay type: in vivo, Wistar rats
measurement.setup: male, Wistar, rat, plasma, po, 200 mg/kg
half-life values, listed per item
Give your result in h as a bare value.

Below, each entry is followed by its recorded half-life result.
• CC(=O)O[C@H]1[C@H]2O[C@]23[C@@H]2CC[C@@H]4C[C@@H](O)CC[C@]4(C)[C@H]2CC[C@]3(C)[C@H]1c1ccc(=O)oc1 = 1.32
• C[C@]12CC[C@H](O)C[C@H]1CC[C@@H]1[C@@H]2CC[C@]2(C)[C@@H](c3ccc(=O)oc3)C[C@H]3O[C@]132 = 1.2
• C[C@]12CC[C@H](O)C[C@H]1CC[C@@H]1[C@@H]2CC[C@]2(C)[C@@H](c3ccc(=O)oc3)CC[C@]12O = 1.77
• C[C@]12CC[C@H](O)C[C@@]1(O)CC[C@@H]1[C@@H]2CC[C@]2(C)[C@@H](c3ccc(=O)oc3)CC[C@]12O = 1.88
• C[C@]12CC[C@H](O)C[C@H]1CC[C@@H]1[C@@H]2CC[C@]2(C)[C@@H](c3ccc(=O)oc3)[C@@H](O)[C@H]3O[C@]132 = 10.8

Return reported half-life; argument: C[C@]12CC[C@H](O)C[C@H]1CC[C@@H]1[C@@H]2[C@H](O)C[C@]2(C)[C@@H](c3ccc(=O)oc3)CC[C@]12O 2.82

====

Format: in vivo, Wistar rats
measurement.setup: rat plasma, intragastric crude VB extract 200 mg/kg, n=4
measure.name: MRT(0-t) (h)
Give your result in h as a bare value.

• C[C@]12CC[C@H](O)C[C@H]1CC[C@@H]1[C@@H]2C(=O)[C@H](O)[C@]2(C)[C@@H](c3ccc(=O)oc3)CC[C@]12O = 4.614
• C[C@]12CC[C@H](O)C[C@H]1CC[C@@H]1[C@@H]2[C@H](O)C(=O)[C@]2(C)[C@@H](c3ccc(=O)oc3)CC[C@]12O = 3.338

Return reported MRT(0-t); argument: CC(=O)O[C@H]1[C@H]2O[C@]23[C@@H]2CC[C@]4(O)C[C@@H](O)CC[C@]4(C=O)[C@H]2CC[C@]3(C)[C@H]1c1ccc(=O)oc1 0.942

Same lookup for C[C@]12CC[C@H]3[C@@H](CC[C@]4(O)C[C@@H](O)CC[C@]34C=O)[C@@]1(O)CC[C@@H]2c1ccc(=O)oc1 , please. 6.478
